target: Ubiquitin carboxyl-terminal hydrolase 1 (Homo sapiens) (UniProt O94782); experiment: Inhibitors of USP1/UAF1: Pilot qHTS (AID 504865); settings: purified USP1/UAF1, Ub-rhodamine cleavage fluorescence; series mostly up to 114 µM; note: nearly all actives have a fitted effect of over 35% in size
Sequence (O94782 whole entry, looked up): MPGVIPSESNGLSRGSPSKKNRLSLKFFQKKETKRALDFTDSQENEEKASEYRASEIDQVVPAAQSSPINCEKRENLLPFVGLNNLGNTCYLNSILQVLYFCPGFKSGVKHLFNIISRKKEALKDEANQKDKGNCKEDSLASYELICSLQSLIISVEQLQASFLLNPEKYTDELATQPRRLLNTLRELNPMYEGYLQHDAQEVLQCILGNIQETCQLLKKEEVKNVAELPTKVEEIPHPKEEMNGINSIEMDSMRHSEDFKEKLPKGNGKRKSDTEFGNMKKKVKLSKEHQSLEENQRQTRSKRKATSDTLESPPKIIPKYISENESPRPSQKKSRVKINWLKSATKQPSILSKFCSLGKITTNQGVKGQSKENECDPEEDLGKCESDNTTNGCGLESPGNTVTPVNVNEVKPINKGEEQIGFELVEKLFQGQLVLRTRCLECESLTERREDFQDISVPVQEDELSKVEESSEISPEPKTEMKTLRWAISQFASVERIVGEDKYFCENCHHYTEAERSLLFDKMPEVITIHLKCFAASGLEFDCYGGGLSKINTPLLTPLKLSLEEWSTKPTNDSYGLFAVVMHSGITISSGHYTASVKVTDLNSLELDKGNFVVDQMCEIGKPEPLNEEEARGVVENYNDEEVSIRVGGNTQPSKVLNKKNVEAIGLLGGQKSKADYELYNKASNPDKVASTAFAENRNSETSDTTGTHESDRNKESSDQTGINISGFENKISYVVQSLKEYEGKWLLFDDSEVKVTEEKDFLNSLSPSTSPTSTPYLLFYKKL
Results filed as inconclusive are left out. Active and inactive are the calls of the source. Calls come from the whole dose curve; as a rule, active = well fitted inhibition curve with a large enough effect; inconclusive = small, poorly fitted or top-dose-only effect; inactive = flat fitted curve, though single readings scatter.
The reply should be one of these categories: active, inactive

Some solved entries appear below for comparison.
COc1ccc(-c2ccc3cc(C(=O)O)ccc3c2)cc1C12CC3CC(CC(C3)C1)C2: active
O=c1cc(O)c(Cl)c[nH]1: inactive
C#CCN[C@@H]1CCc2ccccc21: inactive

**Query** // param item: COc1ccc(C(=O)CC(=O)c2ccc(C(C)(C)C)cc2)cc1 ; yields the recorded call
**Result** inactive

**Query** // param item: O=C(O)C1CCCN(CCC=C(c2ccccc2)c2ccccc2)C1 (stereo not given) ; yields the recorded call
**Result** inactive

**Query** // param item: CC[C@H](NC(C)C)[C@H](O)c1ccc(O)c2[nH]c(=O)ccc12 ; yields the recorded call
**Result** inactive

----------
test system: CRL-7250; experiment: Cytotoxic Profiling of Annotated Libraries Using Quantitative High-Throughput Screening (AID 1296008); conditions: Five cell lines viability, CellTiter-Glo ATP luminescence, 48-72 h; note: nearly all actives have a fitted effect of over 60% in size
Inconclusive results are not listed. The source made the active and inactive calls. Calls come from the whole dose curve; as a rule, active = well fitted inhibition curve with a large enough effect; inconclusive = small, poorly fitted or top-dose-only effect; inactive = flat fitted curve, though single readings scatter.
The reply should be one of these categories: active, inactive

CC(=O)CC(c1ccccc1)c1c(O)c2ccccc2oc1=O (stereo unspecified): inactive

**Query** // param item: CNCC[C@H](Oc1cccc2ccccc12)c1cccs1 ; yields the recorded call
**Result** inactive

**Query** // param item: O=C(N[C@H](CO)[C@H](O)c1ccc([N+](=O)[O-])cc1)C(Cl)Cl ; yields the recorded call
**Result** inactive

**Query** // param item: Cn1nnc2c(C(N)=O)ncn2c1=O ; yields the recorded call
**Result** inactive

**Query** // param item: COc1cc2ncnc(Nc3cccc(Cl)c3)c2cc1OC ; yields the recorded call
**Result** active

**Query** // param item: CC(C)NCC(O)c1ccc(NS(C)(=O)=O)cc1 (stereo unspecified) ; yields the recorded call
**Result** inactive

----------
assay: qHTS assay to identify inhibitors of the type 1 interferon - major histocompatibility complex class I in skeletal muscle: Counter screen cell viability and HiBit confirmation (AID 1347412); conditions: iHSKM muscle cells + IFN-b, HiBiT or CellTiter-Glo, 24 h; Viability; at 45.9 µM (top of the series); note: % is set by controls: 0 for no effect and ±100 for the full control effect; nearly all actives have a fitted effect of over 60% in size
From the text: […]
Inconclusive results are not listed. Activity calls are given as the source filed them. Calls come from the whole dose curve; as a rule, active = well fitted inhibition curve with a large enough effect; inconclusive = small, poorly fitted or top-dose-only effect; inactive = no such curve, though single readings can be large or run the other way.
metric: activity change, negative = inhibition

Sample records with activity change, negative = inhibition:
CNC(=O)c1cc(Oc2ccc(NC(=O)Nc3ccc(Cl)c(C(F)(F)F)c3)cc2)ccn1: -24% (inactive)
COC(=O)Nc1nc2ccc(C(=O)c3ccccc3)cc2[nH]1: -33.9% (inactive)
COc1cc2ncnc(Nc3cccc(Cl)c3)c2cc1OC: -9.03% (inactive)

State recorded activity change, negative = inhibition for all listed compounds.
1. Oc1c(Cl)cc(Cl)c2cccnc12
2. O[C@@H](CNC[C@H](O)[C@H]1CCc2cc(F)ccc2O1)[C@@H]1CCc2cc(F)ccc2O1

**Result**
["-8.17% (inactive)", "-9.67% (inactive)"]

----------
tested on: MKL-2; experiment: qHTS assay to identify novel small-molecules to repurpose for Merkel cell carcinoma treatment (AID 1296009); details: MCC and control cell lines, CellTiter-Glo viability, 72 h; series mostly up to 46 µM; note: nearly all actives have a fitted effect of over 60% in size
Results filed as inconclusive are left out. Activity calls are given as the source filed them. Calls follow the shape of the dose curve; as a rule, active = well fitted inhibition curve with a large enough effect; inconclusive = small, poorly fitted or top-dose-only effect; inactive = flat fitted curve, though single readings scatter.
The reply should be one of these categories: Yes for active, No for inactive

OC(Cn1cncn1)(Cn1cncn1)c1ccc(F)cc1F: No
OCc1ccc(-c2nn(Cc3ccccc3)c3ccccc23)o1: Yes
Cc1cccc(N(C)C(=S)Oc2ccc3ccccc3c2)c1: No

**Query** // param item: COc1nc(N)nc2c1ncn2[C@@H]1O[C@H](CO)[C@@H](O)[C@@H]1O ; yields the recorded call
**Result** No

**Query** // param item: O=C(O)c1cc(=O)[nH]c(=O)[nH]1 ; yields the recorded call
**Result** No

**Query** // param item: CNS(=O)(=O)CCc1ccc2[nH]cc(C3CCN(C)CC3)c2c1 ; yields the recorded call
**Result** No

----------
assay: Quantitative High-Throughput drug screen in 47 multiple myeloma cell lines against the NCATS MIPE library collection: ARD_JJKsccE7 cell viability assay (AID 1918929; note: potency is the fitted concentration of half-maximal effect;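 for viability: 100% = DMSO-only wells and 0% = media-only wells without cells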); details: ARD myeloma cell line viability, CellTiter-Glo, 48 h; series mostly up to 45.8 µM
Records with an inconclusive call do not appear. The source made the active and inactive calls. Calls follow the shape of the dose curve; as a rule, active = well fitted cell-killing curve with a large enough effect; inconclusive = small, poorly fitted or top-dose-only effect, or effect the other way; inactive = no such curve, though single readings can be large or run the other way.
metric: Potency

Sample records with Potency:
CC(C)(C)NC(=O)[C@H]1CC[C@H]2[C@@H]3CC[C@H]4NC(=O)C=C[C@]4(C)[C@H]3CC[C@]12C: 20.9 µM (active)
CCOC(=O)c1ccc(C#Cc2ccc3c(c2)C(C)(C)CCS3)nc1: inactive
Cc1oc(=O)oc1CN1CCN(c2cc3c(cc2F)c(=O)c(C(=O)O)c2n3C(C)S2)CC1 (stereo not drawn): inactive
COc1ccccc1OCC(O)COC(N)=O (stereo not drawn): inactive
CCN[C@H]1C[C@H](C)S(=O)(=O)c2sc(S(N)(=O)=O)cc21: inactive

State recorded Potency for all listed compounds.
1. COc1cc(NCc2ccc3nc(N)nc(N)c3c2C)cc(OC)c1OC
2. Cn1nnc2c(C(N)=O)ncn2c1=O
3. CCCc1cc(C(N)=S)ccn1
4. O=NN(CCCl)C(=O)NC1CCCCC1
5. COc1cccc(N(C)C(=S)Oc2ccc3c(c2)CCCC3)n1

**Result**
1.05 µM (active)
inactive
inactive
inactive
23.5 µM (active)

State recorded Potency for all listed compounds.
1. CN(C)CCc1c[nH]c2ccc(C[C@H]3COC(=O)N3)cc12
2. COc1ccc2cc3[n+](cc2c1OC)CCc1cc2c(cc1-3)OCO2
3. Cc1noc(NS(=O)(=O)c2ccc(N)cc2)c1C
4. N[C@@H](C(=O)N[C@@H]1C(=O)N2C(C(=O)O)=C(Cl)CS[C@H]12)c1ccccc1
5. CC1=CC(=O)c2ccccc2C1=O

**Result**
1: inactive; 2: 5.9 µM (active); 3: inactive; 4: inactive; 5: inactive

State recorded Potency for all listed compounds.
1. NC(=O)N1c2ccccc2CC(=O)c2ccccc21
2. CO[C@@]12[C@H](COC(N)=O)C3=C(C(=O)C(C)=C(N)C3=O)N1C[C@@H]1N[C@@H]12
3. CCOC(=O)[C@H](CCc1ccccc1)N[C@H]1CS[C@H](c2cccs2)CN(CC(=O)O)C1=O
4. NS(=O)(=O)c1cc2c(cc1Cl)NC(C(Cl)Cl)NS2(=O)=O (stereo not drawn)
5. Nc1ccc(S(=O)(=O)Nc2ccccn2)cc1

**Result**
inactive
inactive
1.66 µM (active)
inactive
inactive

State recorded Potency for all listed compounds.
1. CN1CCN(c2c(F)cc3c(=O)c(C(=O)O)cn4c3c2OCN4C)CC1
2. CC(=O)CC(c1ccccc1)c1c(O)c2ccccc2oc1=O (stereo not drawn)

**Result**
["inactive", "inactive"]

**Query** Tell me its Potency given Nc1nc(F)nc2c1ncn2[C@@H]1O[C@H](CO)[C@@H](O)[C@@H]1O as the entry.
**Result** 0.332 µM (active)

----------
tested on: C33A; experiment: Primary qHTS to identify gynecologic anti-cancer compounds using libraries of approved drugs and bioactive compounds (AID 1345084); settings: Gynecologic cancer cell panel viability, ATPlite luminescence, 48 h; series mostly up to 57.5 µM; note: nearly all actives have a fitted effect of over 55% in size
Records with an inconclusive call do not appear. Activity calls are given as the source filed them. The call rests on the fitted dose curve; in most records, active means well fitted cell-killing curve with a large enough effect; inconclusive means small, poorly fitted or top-dose-only effect, or effect the other way; inactive means flat fitted curve, though single readings scatter.
The reply should be one of these categories: 1 (active), -1 (inactive)

Some solved entries appear below for comparison.
Cc1nnc(C(=O)NC(C)(C)c2nc(C(=O)NCc3ccc(F)cc3)c(O)c(=O)n2C)o1: -1
O=S(=O)(O)CCS: -1
CN1CCN(c2c(F)cc3c(=O)c(C(=O)O)cn4c3c2OCN4C)CC1: -1

**Query** // param item: CNC1CCCN(c2c(F)cc3c(=O)c(C(=O)O)cn(C4CC4)c3c2OC)C1 (centres undefined) ; yields the recorded call
**Result** -1

**Query** // param item: COc1cc2ncnc(Nc3cccc(Cl)c3)c2cc1OC ; yields the recorded call
**Result** -1

**Query** // param item: O=C(NCC1CN(c2ccc(N3CCOCC3=O)cc2)C(=O)O1)c1ccc(Cl)s1 (centres undefined) ; yields the recorded call
**Result** -1

**Query** // param item: CC[C@H](C)C(=O)O[C@H]1C[C@@H](C)C=C2C=C[C@H](C)[C@H](CC[C@@H]3C[C@@H](O)CC(=O)O3)[C@H]21 ; yields the recorded call
**Result** -1

**Query** // param item: O=C(O)CCn1c2c(c3ccccc31)C[C@H](NS(=O)(=O)c1ccc(F)cc1)CC2 ; yields the recorded call
**Result** -1

**Query** // param item: O=S(=O)(c1cccc2cnccc12)N1CCCNCC1 ; yields the recorded call
**Result** -1

**Query** // param item: CN(C)CCc1c[nH]c2ccc(CS(=O)(=O)N3CCCC3)cc12 ; yields the recorded call
**Result** -1

**Query** // param item: Cc1ncc([N+](=O)[O-])n1CCO ; yields the recorded call
**Result** -1

**Query** // param item: CN(C)CCc1c[nH]c2ccc(C[C@H]3COC(=O)N3)cc12 ; yields the recorded call
**Result** -1

**Query** // param item: CCOc1cc(N)c(Cl)cc1C(=O)NCC1CN(Cc2ccc(F)cc2)CCO1 (centres undefined) ; yields the recorded call
**Result** -1

**Query** // param item: S=P(N1CC1)(N1CC1)N1CC1 ; yields the recorded call
**Result** -1

**Query** // param item: COc1ccc2cc3[n+](cc2c1OC)CCc1cc2c(cc1-3)OCO2 ; yields the recorded call
**Result** 1

**Query** // param item: CCOC(=O)c1ccc(C#Cc2ccc3c(c2)C(C)(C)CCS3)nc1 ; yields the recorded call
**Result** -1

**Query** // param item: CNS(=O)(=O)Cc1ccc2[nH]cc(CCN(C)C)c2c1 ; yields the recorded call
**Result** -1

**Query** // param item: COc1cnc(NS(=O)(=O)c2ccc(N)cc2)nc1 ; yields the recorded call
**Result** -1

**Query** // param item: CCN[C@H]1C[C@H](C)S(=O)(=O)c2sc(S(N)(=O)=O)cc21 ; yields the recorded call
**Result** -1

**Query** // param item: CC(N)C12CC3CC(CC(C3)C1)C2 (centres undefined) ; yields the recorded call
**Result** -1

**Query** // param item: CCn1cc(C(=O)O)c(=O)c2cc(F)c(N3CCNCC3)nc21 ; yields the recorded call
**Result** -1
